System: Botrytis cinerea
TEST DESCRIPTION: Fungicide activity, mycelial growth inhibition on PDA plate
Type: cell-based
CONDITION DESCRIPTION: Botrytis cinerea, 50 μg/mL, B. cinerea; read-out: Fungicidal activity inhibition, BC
VALUE TYPE: inhibition at 50 µg/mL

{"columns": ["COMPOUND", "VALUE TYPE", "TEST VALUE"],
 "data": [
  ["CO/N=C(/C(=O)NC(C)(C)CSC)c1ccccc1CO/N=C(\\N)c1snc(Cl)c1Cl [CL04-25D]", "inhibition at 50 µg/mL", "39.3%"],
  ["CO/N=C(/C(=O)NC1CC1)c1ccccc1CO/N=C(C)/C=C/c1snc(Cl)c1Cl [CL04-32C]", "inhibition at 50 µg/mL", "57.9%"],
  ["CO/N=C(/C(=O)OC)c1ccccc1CO/N=C(\\N)c1snc(Cl)c1Cl [CL04-15C]", "inhibition at 50 µg/mL", "100%"]
]}

###

Test system: Sclerotinia sclerotiorum
TEST DESCRIPTION: Fungicide activity, mycelial growth inhibition on PDA plate
Assay type: cell-based
CONDITION DESCRIPTION: Sclerotinia sclerotiorum, 50 μg/mL, S. sclerotiorum; read-out: Fungicidal activity inhibition, SS
Please map values of inhibition at 50 µg/mL to classes as shown: class 0: < 70%; class 1: ≥ 70% and < 80%; class 2: ≥ 80%

{"columns": ["COMPOUND", "ASSIGNED CLASS"],
 "data": [
  ["CO/N=C(/C(=O)OC)c1ccccc1CO/N=C(\\N)c1snc(Cl)c1Cl [CL04-15C]", "class 2"],
  ["CO/C=C(/C(=O)OC)c1ccccc1CO/N=C(\\N)c1snc(Cl)c1Cl", "class 2"],
  ["CO/N=C(/C(=O)NCC(F)F)c1ccccc1CO/N=C(\\C)c1snc(Cl)c1Cl [CL04-22A]", "class 2"],
  ["CO/C=C(/C(=O)OC)c1ccccc1CO/N=C/c1snc(Cl)c1Cl", "class 0"],
  ["CO/N=C(/C(=O)NCC(F)F)c1ccccc1CO/N=C(\\N)c1snc(Cl)c1Cl", "class 0"],
  ["CO/N=C(/C(=O)NC1CC1)c1ccccc1CO/N=C(\\N)c1snc(Cl)c1Cl [CL04-25B]", "class 1"],
  ["CO/N=C(/C(=O)OC)c1ccccc1CO/N=C(\\C)c1snc(Cl)c1Cl [CL04-15A]", "class 2"],
  ["CO/N=C(/C(=O)N[C@H](C)CSC)c1ccccc1CO/N=C(C)/C=C/c1snc(Cl)c1Cl [CL04-32F]", "class 0"],
  ["CNC(=O)/C(=N/OC)c1ccccc1CO/N=C(\\N)c1snc(Cl)c1Cl [CL04-25C]", "class 0"],
  ["CO/C=C(/C(=O)OC)c1ccccc1CO/N=C(C)/C=C/c1snc(Cl)c1Cl", "class 2"],
  ["CO/C=C(/C(=O)OC)c1ccccc1CO/N=C(\\C)CC(=O)c1snc(Cl)c1Cl", "class 1"]
]}
